# Test system: Alopecurus myosuroides (ALOMY)
# Experiment Description: Post-emergence biological efficacy, glasshouse pot test
# Assay type: in vivo
# Experimental Context: 312 h, Rate 1,000 g/ha, post-emergence spray, evaluated after 13 days (100=total damage to plant; 0=no damage to plant), read-out: Percentage damage caused to weed species, post-emergence, ALOMY
Mark label 1 only for pest or weed control at 1000 g/ha values smaller than 10%; exact matches and larger values are label 0.

Worked set:
{"Input Smiles": "COCCN(C/C=C/c1ccco1)c1nc(C2CC2)nc(C(=O)OC)c1Cl", "Class Label": "label 1"}
{"Input Smiles": "C=CCN(Cc1cccc(OC)c1OC)c1nc(C2CC2)nc(C(=O)OC)c1Cl", "Class Label": "label 1"}
{"Input Smiles": "C=Cc1c(NCc2ccco2)nc(-c2ccc(Cl)c(OC)c2F)nc1C(=O)OC", "Class Label": "label 0"}
{"Input Smiles": "COC(=O)c1nc(-c2ccc(Cl)c(Cl)c2Cl)nc(NCc2ccco2)c1Cl", "Class Label": "label 0"}
{"Input Smiles": "C=Cc1ccc(-c2c(NCc3ccco3)nc(C3CC3)nc2C(=O)OC)cc1", "Class Label": "label 1"}

QUERY: Does the reported pest or weed control at 1000 g/ha of COC(=O)c1nc(C2CC2)nc(N(C)Cc2ccccc2F)c1Cl stay below 10%?
RESULT: label 0

QUERY: Does the reported pest or weed control at 1000 g/ha of COC(=O)c1nc(C2CC2)nc(N(C)Cc2nonc2C)c1Cl stay below 10%?
RESULT: label 0
